B1: VPS39 (parent)
chain: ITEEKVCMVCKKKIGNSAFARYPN

Variants of: B1
Test: protein stability index of a GFP-peptide fusion (GPS, HEK-293T) (PSI 1-6); higher = more stable;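 further: lentivirally expressed fusions sorted by FACS into six bins by GFP to DsRed ratio, PSI derived from sequencing read proportions per bin multiplied by bin number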
Conditions: c terminus: a fixed tail appended
Consider the following variants and their measured protein stability index readings.
PARAMETER_MEASURED: protein stability index

1. M8H : 2.31
2. V6W : 1.62
3. N24W : 1.93
4. I1Y : 2.49
5. N24M : 2.06
6. P23T : 2.13
7. K13L : 1.64
8. K5R : 1.65
9. G15D : 2.46
10. C10I : 2.45
11. K13Y : 2.11
12. Y22F : 2.31
13. I1N : 2.78
14. A18H : 2.73
15. G15I : 2.8
16. K5A : 2.63
17. K5S : 2.53
18. I1S : 2.59
19. F19N : 2.69
20. K11S : 1.7
21. K11M : 1.66
22. C10F : 2.04
23. E4T : 1.83
24. I14R : 2.67
25. K13E : 3.04
26. G15N : 2.37
27. S17L : 2.07
28. A20N : 2.32
29. V6S : 3.06
30. E3N : 1.84
31. T2A : 2.94
32. M8I : 2.6
33. P23M : 1.78
34. M8T : 2.43
35. S17T : 2.11
36. C10L : 2.38
37. I1H : 2.59
38. P23G : 2.7
39. E3C : 1.26
40. G15C : 2.98
41. G15S : 2.54
42. G15Q : 2.99
43. A18N : 2.99
44. N16S : 2.35
45. M8F : 3.02
46. Y22R : 2.35

Origin of the recorded values: the supplement of paper PMC10567573
